The entries below are paired with their reported Mono.
Species: Rattus norvegicus
procedure_details: Open TG-GATES - Regimen: Single
Type: toxicity, organism-based, Sprague-Dawley
Set-up: regimen Single, gender Male, age 6 weeks
conditions_used: in vivo, po, 0 mg/kg, 9 h, tissue Blood, route gavage, dose level Control

compound: C[C@]12CCC(=O)C=C1CC[C@@H]1[C@@H]2CC[C@@]2(C)[C@H]1CC[C@]2(C)O
units: %
Mono: 3

compound: CC(=O)Oc1cc(C(C)C)c(OCCN(C)C)cc1C
units: %
Mono: 2

compound: O=C(N[C@H](CO)[C@H](O)c1ccc([N+](=O)[O-])cc1)C(Cl)Cl
units: %
Mono: 2.6

compound: Nc1nc(N)c2nc(-c3ccccc3)c(N)nc2n1
units: %
Mono: 2

compound: O=C(O)c1cccnc1
units: %
Mono: 2.6

compound: Oc1ncnc2[nH]ncc12
units: %
Mono: 9.6

compound: CCSCC[C@H](N)C(=O)O
units: %
Mono: 2.4

compound: CC(=N)S [THIOACETAMIDE]
units: %
Mono: 7.8

compound: C[C@](N)(Cc1ccc(O)c(O)c1)C(=O)O
units: %
Mono: 2.4

compound: CCN1CCCC1CNC(=O)c1cc(S(N)(=O)=O)ccc1OC (stereo not given) [SULPIRIDE]
units: %
Mono: 2.6

compound: CCc1oc2ccccc2c1C(=O)c1cc(I)c(O)c(I)c1
units: %
Mono: 7.2

compound: CC(C)(S)[C@@H](N)C(=O)O
units: %
Mono: 2.6

compound: CCC(C)(C)C(=O)O[C@H]1C[C@@H](C)C=C2C=C[C@H](C)[C@H](CC[C@@H]3C[C@@H](O)CC(=O)O3)[C@H]21
units: %
Mono: 5.4

compound: CC(C)C(=O)Nc1ccc([N+](=O)[O-])c(C(F)(F)F)c1 [FLUTAMIDE]
units: %
Mono: 2.8

compound: CN1C(=O)OC(C)(C)C1=O
units: %
Mono: 2.2

====

Species: Rattus norvegicus
procedure_details: Open TG-GATES - Regimen: Daily Repeat
Type: toxicity, organism-based, Sprague-Dawley
Set-up: regimen Daily Repeat, gender Male, age 6 weeks
conditions_used: in vivo, po, 100 mg/kg, […], tissue Blood, route gavage, dose level Low, time 7 day
parameter: Fbg (mg/dL)

molecule: CC(C)(S)[C@@H](N)C(=O)O [PENICILLAMINE]
parameter: Fbg
recorded_number: 305.6
//
molecule: CCN1CCCC1CNC(=O)c1cc(S(N)(=O)=O)ccc1OC (centres undefined) [SULPIRIDE]
parameter: Fbg
recorded_number: 289.6
//
molecule: O=C(N[C@H](CO)[C@H](O)c1ccc([N+](=O)[O-])cc1)C(Cl)Cl [CHLORAMPHENICOL]
parameter: Fbg
recorded_number: 308.8
//
molecule: O=C(O)c1cccnc1 [NIACIN]
parameter: Fbg
recorded_number: 316

====

Species: Rattus norvegicus
procedure_details: Open TG-GATES - Regimen: Daily Repeat
Type: toxicity, organism-based, Sprague-Dawley
Set-up: regimen Daily Repeat, gender Male, age 6 weeks
conditions_used: in vivo, po, 0 mg/kg, […], tissue Plasma, route gavage, dose level Control, time 7 day

molecule: CC(C)C(=O)Nc1ccc([N+](=O)[O-])c(C(F)(F)F)c1 [FLUTAMIDE]
ALP (IU/L): 743.8
--
molecule: C[C@]12CCC(=O)C=C1CC[C@@H]1[C@@H]2CC[C@@]2(C)[C@H]1CC[C@]2(C)O
ALP (IU/L): 1755.8
--
molecule: CN1C(=O)OC(C)(C)C1=O
ALP (IU/L): 1722.8
--
molecule: Nc1nc(N)c2nc(-c3ccccc3)c(N)nc2n1
ALP (IU/L): 1612.4
--
molecule: CC(=O)Oc1cc(C(C)C)c(OCCN(C)C)cc1C
ALP (IU/L): 1660
--
molecule: O=C(N[C@H](CO)[C@H](O)c1ccc([N+](=O)[O-])cc1)C(Cl)Cl
ALP (IU/L): 1839.2
--
molecule: O=C(O)c1cccnc1
ALP (IU/L): 1431.4
--
molecule: CCC(C)(C)C(=O)O[C@H]1C[C@@H](C)C=C2C=C[C@H](C)[C@H](CC[C@@H]3C[C@@H](O)CC(=O)O3)[C@H]21
ALP (IU/L): 953
--
molecule: C[C@](N)(Cc1ccc(O)c(O)c1)C(=O)O
ALP (IU/L): 1514

====

Species: Rattus norvegicus
procedure_details: Open TG-GATES - Regimen: Daily Repeat
Format: toxicity, organism-based, Sprague-Dawley
Parameters: regimen Daily Repeat, gender Male, age 6 weeks
conditions_used: in vivo, po, 1000 mg/kg, […], tissue Plasma, route gavage, dose level High, time 7 day
parameter: Ca

compound: CCN1CCCC1CNC(=O)c1cc(S(N)(=O)=O)ccc1OC (centres undefined) [SULPIRIDE]
result: 11 mg/dL
--
compound: O=C(N[C@H](CO)[C@H](O)c1ccc([N+](=O)[O-])cc1)C(Cl)Cl
result: 11.2 mg/dL
--
compound: O=C(O)c1cccnc1
result: 10.6 mg/dL
--
compound: CC(C)(S)[C@@H](N)C(=O)O
result: 10.8 mg/dL

====

Recorded measurements of Plat, one per entry
Species: Rattus norvegicus
procedure_details: Open TG-GATES - Regimen: Daily Repeat
Format: toxicity, organism-based, Sprague-Dawley
Set-up: regimen Daily Repeat, gender Male, age 6 weeks
conditions_used: in vivo, po, 1000 mg/kg, […], tissue Blood, route gavage, dose level High, time 7 day
parameter: Plat (x10_4/uL)

molecule: O=C(N[C@H](CO)[C@H](O)c1ccc([N+](=O)[O-])cc1)C(Cl)Cl [CHLORAMPHENICOL]
parameter: Plat
units: x10_4/uL
recorded_number: 126.1
//
molecule: O=C(O)c1cccnc1 [NIACIN]
parameter: Plat
units: x10_4/uL
recorded_number: 107.2
//
molecule: CCN1CCCC1CNC(=O)c1cc(S(N)(=O)=O)ccc1OC (centres undefined) [SULPIRIDE]
parameter: Plat
units: x10_4/uL
recorded_number: 125.3
//
molecule: CC(C)(S)[C@@H](N)C(=O)O [PENICILLAMINE]
parameter: Plat
units: x10_4/uL
recorded_number: 131.3

====

The entries below come with measured KIDNEY_R values attached.
Species on record: Rattus norvegicus
procedure_details: Open TG-GATES - Regimen: Single
Format: toxicity, organism-based, Sprague-Dawley
Parameters: regimen Single, gender Male, age 6 weeks
conditions_used: in vivo, po, 0 mg/kg, 9 h, tissue Kidney, route gavage, dose level Control
parameter: KIDNEY_R (g)

compound: CCN1CCCC1CNC(=O)c1cc(S(N)(=O)=O)ccc1OC (stereo unspecified) [SULPIRIDE]
recorded_number: 0.9

compound: C[C@](N)(Cc1ccc(O)c(O)c1)C(=O)O [METHYLDOPA]
recorded_number: 0.8

compound: CC(=O)Oc1cc(C(C)C)c(OCCN(C)C)cc1C [MOXISYLYTE]
recorded_number: 1

compound: Oc1ncnc2[nH]ncc12 [ALLOPURINOL]
recorded_number: 0.9

compound: CC(C)(S)[C@@H](N)C(=O)O [PENICILLAMINE]
recorded_number: 0.9

compound: Nc1nc(N)c2nc(-c3ccccc3)c(N)nc2n1
recorded_number: 1

====

Species: Rattus norvegicus
procedure_details: Open TG-GATES - Regimen: Daily Repeat
Type: toxicity, organism-based, Sprague-Dawley
Set-up: regimen Daily Repeat, gender Male, age 6 weeks
conditions_used: in vivo, po, 100 mg/kg, 72 h, tissue Plasma, route gavage, dose level Low, time 3 day
Here, each record is paired with measured AST data.
parameter: AST (IU/L)

compound: CC(C)(S)[C@@H](N)C(=O)O [PENICILLAMINE]
units: IU/L
recorded_number: 69.8
--
compound: CCN1CCCC1CNC(=O)c1cc(S(N)(=O)=O)ccc1OC (centres undefined) [SULPIRIDE]
units: IU/L
recorded_number: 66.4
--
compound: O=C(N[C@H](CO)[C@H](O)c1ccc([N+](=O)[O-])cc1)C(Cl)Cl [CHLORAMPHENICOL]
units: IU/L
recorded_number: 69.4
--
compound: O=C(O)c1cccnc1 [NIACIN]
units: IU/L
recorded_number: 79.2

====

Organism: Rattus norvegicus
procedure_details: Open TG-GATES - Regimen: Single
Format: toxicity, organism-based, Sprague-Dawley
Set-up: regimen Single, gender Male, age 6 weeks
conditions_used: in vivo, po, 0 mg/kg, 9 h, tissue Blood, route gavage, dose level Control
parameter: Ht

molecule: CCC(C)(C)C(=O)O[C@H]1C[C@@H](C)C=C2C=C[C@H](C)[C@H](CC[C@@H]3C[C@@H](O)CC(=O)O3)[C@H]21
parameter: Ht
result: 40.2%

molecule: O=C(N[C@H](CO)[C@H](O)c1ccc([N+](=O)[O-])cc1)C(Cl)Cl
parameter: Ht
result: 42.9%

molecule: CCN1CCCC1CNC(=O)c1cc(S(N)(=O)=O)ccc1OC (stereo not given) [SULPIRIDE]
parameter: Ht
result: 41.6%

molecule: CC(=N)S [THIOACETAMIDE]
parameter: Ht
result: 39.5%

molecule: CC(C)C(=O)Nc1ccc([N+](=O)[O-])c(C(F)(F)F)c1 [FLUTAMIDE]
parameter: Ht
result: 39.4%
